Kindly state pKi for each of the entries shown.
target: adrenergic α1 receptor; experiment: adrenergic α1 receptor binding test ([3H] Prazosin Binding Test); parameters: species or system SD rats; conditions: 1 nM [3H] Prazosin, rat cortex, room temperature, 60 minutes
// field semantics: pKi = negative decimal log of concentration (mol/L)

Query string: Look up pKi with adrenergic α1 receptor for this compound: CC[C@@H](F)c1cc(N2CCN(C)CC2)cc(-c2ccccc2C)c1Cl
Result string: 5.77

Query string: API: value(readout= pKi, system= adrenergic α1 receptor, query= CCC(F)c1cc(N2CCN(C)CC2)cc(-c2ccccc2Cl)c1Cl (stereo not drawn) )
Result string: 6.09

Query string: State its pKi on adrenergic α1 receptor: CCN1CCN(c2cc(-c3ccc(F)cc3)c(OC)cc2C(C)C)CC1
Result string: 7.16

Query string: What is its pKi for adrenergic α1 receptor? Entry: CCCCS(=O)(=O)Nc1cc(N2CCN(C)CC2)cc(-c2ccccc2C)c1Cl
Result string: 7.03

Query string: Checklist item: pKi tested on adrenergic α1 receptor, entry CCN1CCN(c2cc(-c3ccc(F)cc3)c(OC)c(C(C)C)c2)CC1 , value?
Result string: 7.13

---

Kindly supply the reported Ki values for the records listed here.
// note: answer is a bare numeric in nM

Query string: Checklist item: Ki tested on serotonin S2 receptor (Rattus norvegicus, UniProt P14842), entry CCC(=O)c1cc(N2CCN(CC)CC2)cc(-c2ccccc2)c1OC [Example 82] , value?
Result string: 10.7

Query string: Requested read-out Ki, target or system serotonin S2 receptor (Rattus norvegicus, UniProt P14842), entry CCC(F)c1cc(N2CCN(C)CC2)cc(-c2ccccc2CO)c1Cl (stereo not drawn) [Example 207]
Result string: 81.1

Query string: What Ki appears in the records for this molecule with serotonin S2 receptor (Rattus norvegicus, UniProt P14842)? CCN1CCN(c2cc(-c3ccccc3C)c(Cl)c(C3SCCCS3)c2)CC1 [Example 190]
Sequence (P14842 whole entry): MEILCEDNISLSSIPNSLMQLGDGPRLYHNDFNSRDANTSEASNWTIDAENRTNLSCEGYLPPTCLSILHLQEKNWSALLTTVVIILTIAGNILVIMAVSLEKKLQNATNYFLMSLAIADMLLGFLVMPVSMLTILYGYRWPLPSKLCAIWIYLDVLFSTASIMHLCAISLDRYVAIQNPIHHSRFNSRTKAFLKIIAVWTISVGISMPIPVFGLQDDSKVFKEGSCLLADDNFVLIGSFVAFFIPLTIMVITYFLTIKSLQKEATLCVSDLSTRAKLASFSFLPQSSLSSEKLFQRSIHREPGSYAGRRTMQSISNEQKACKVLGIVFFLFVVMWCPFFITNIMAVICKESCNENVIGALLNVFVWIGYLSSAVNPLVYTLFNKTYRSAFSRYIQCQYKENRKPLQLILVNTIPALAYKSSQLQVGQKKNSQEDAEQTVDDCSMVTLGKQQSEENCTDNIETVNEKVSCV
Result string: 18.5

Query string: Any idea what Ki came out for CCN1CCN(c2cc(-c3ccccc3)c(OC)c(S(=O)(=O)CCCOc3ccc(F)cc3)c2)CC1 [Example 181] on serotonin S2 receptor (Rattus norvegicus, UniProt P14842)?
Result string: 0.5

Query string: Report Ki for CCN1CCN(c2cc(-c3ccccc3C)c(Cl)c(S(=O)(=O)Nc3ccccc3)c2)CC1 [Example 166] tested on serotonin S2 receptor (Rattus norvegicus, UniProt P14842).
Result string: 5.42

Query string: Look up Ki with serotonin S2 receptor (Rattus norvegicus, UniProt P14842) for this molecule: CCN1CCN(c2cc(-c3ccccc3)c(OC)c(C(F)Cc3ccccn3)c2)CC1 (stereo not drawn) [Example 99]
Result string: 170

Query string: I'm curious: which Ki was measured for CCCc1cc(N2CCN(CC)CC2)cc(-c2ccc(F)cc2)c1OC [Example 65] tested on serotonin S2 receptor (Rattus norvegicus, UniProt P14842)?
Result string: 26.6

Query string: Short answer please: Ki, serotonin S2 receptor (Rattus norvegicus, UniProt P14842), entry CCN1CCN(c2cc(C(=O)Cc3ccccc3)c(OC)c(-c3ccccc3)c2)CC1 [Example 92]
Result string: 1.14

---

target: serotonin S2 receptor (Rattus norvegicus, UniProt P14842)
Consider the following compounds; for each one, report its Ki.

Query string: For the compound CCN1CCN(c2cc(-c3ccccc3C)c(Cl)c(S(C)(=O)=O)c2)CC1 [Example 158] , what Ki is on record?
Result string: 124 nM

Query string: Item CCN1CCN(c2cc(-c3ccccc3)c(OC)c([S+]([O-])CC)c2)CC1 (stereo not drawn) [Example 105] has what recorded Ki?
Result string: 5.21 nM

Query string: Field request: Ki | item: CCN1CCN(c2cc(-c3ccccc3)c(OC)c(S(=O)(=O)N3CCCC3)c2)CC1 [Example 135]
Result string: 16 nM

Query string: Entry under review: CCN1CCN(c2cc(-c3ccccc3)c(OC)c(C(F)Cc3ccncc3)c2)CC1 (stereo not drawn) [Example 121] . Reported Ki?
Result string: 168 nM

Query string: Need Ki of CCCCS(=O)(=O)Nc1cc(N2CCN(C)CC2)cc(-c2ccccc2C)c1Cl [Example 30] , thanks.
Result string: 2.24 nM

Query string: Tell me the measured Ki of CCCc1cc(N2CCN(CC)CC2)cc(-c2ccc(OC)cc2)c1OC [Example 73] , please.
Result string: 635 nM

Query string: Given C/C=C/c1cc(N2CCN(CC)CC2)cc(-c2ccccc2)c1OC [Example 100] , state its recorded Ki.
Result string: 827 nM

Query string: # Ki lookup, item CCC(F)c1cc(N2CCN(CCc3ccccn3)CC2)cc(-c2ccccc2C)c1Cl (stereo not drawn) [Example 213]
Result string: 10.3 nM

Query string: Item under review: CCN1CCN(c2cc(-c3ccccc3)c(OC)c(C(F)(F)CC)c2)CC1 [Example 186] . Reported Ki?
Result string: 4.29 nM

---

molecular target: dopamine D2 receptor (Rattus norvegicus, UniProt P61169); construct: the receptor fraction prepared from the corpus striatum was molten and suspended; from tissue; host or cells: corpus striatum of SD rats (membrane fraction); assay: dopamine D2 receptor binding test ([3H] Spiperone Binding Test); design: species or system SD rats; settings: Ki value, dopamine D2 receptor, 1 nM [3H] Spiperone, rat corpus striatum, room temperature, 60 minutes
Sequence (P61169 whole entry): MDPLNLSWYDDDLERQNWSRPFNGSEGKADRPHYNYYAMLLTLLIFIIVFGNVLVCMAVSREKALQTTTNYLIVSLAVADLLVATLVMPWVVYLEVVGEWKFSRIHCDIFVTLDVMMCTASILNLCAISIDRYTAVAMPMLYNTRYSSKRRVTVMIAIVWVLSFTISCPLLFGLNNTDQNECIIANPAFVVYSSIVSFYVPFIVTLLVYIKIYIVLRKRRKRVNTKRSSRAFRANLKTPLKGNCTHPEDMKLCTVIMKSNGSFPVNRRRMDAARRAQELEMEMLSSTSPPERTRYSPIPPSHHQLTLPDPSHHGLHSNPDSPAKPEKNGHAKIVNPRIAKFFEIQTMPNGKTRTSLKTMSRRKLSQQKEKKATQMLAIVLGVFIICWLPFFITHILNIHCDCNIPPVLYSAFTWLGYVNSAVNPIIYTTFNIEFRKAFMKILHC
Give measured pKi for each item. Keep answers brief.
Units for pKi: none; it is -log10 of a concentration expressed in mol/L.

Query string: Quick one: pKi of CCN1CCN(c2cc(CCl)c(OC)c(-c3ccccc3)c2)CC1 ?
Result string: 7.57

Query string: Given CCN1CCN(c2cc(C#N)c(OC)c(-c3ccccc3)c2)CC1 , state its recorded pKi.
Result string: 7.35

Query string: GET /values?readout=pKi&item= CCCc1cc(N2CCN(CCF)CC2)cc(-c2ccc(F)cc2)c1OC
Result string: 7.30

Query string: Field request: pKi | item: CCN1CCN(c2cc(C=O)c(OC)c(-c3ccccc3)c2)CC1
Result string: 7.36

Query string: Using the record for CCC(=O)c1cc(-c2ccccc2)cc(N2CCN(CC)CC2)c1 , report its pKi.
Result string: 7.53

---

Give log10(Ki) for every item shown.
Recorded Ki (log10, µM)

Query string: API: value(readout=log10(Ki), system=UniProt:P14842) for record CCN1CCN(c2cc(-c3ccccc3)c(OC)c(S(=O)(=O)CCF)c2)CC1
Result string: -1.52

Query string: Quick check: log10(Ki) on UniProt:P14842, item CCCCS(=O)(=O)Nc1cc(N2CCN(CC)CC2)cc(-c2ccccc2Cl)c1Cl ?
Result string: -2.19

Query string: Write down the reported log10(Ki) of CCN1CCN(c2cc(-c3ccccc3)c(OC)c(C(C)CO)c2)CC1 (stereo not drawn) , test system: UniProt:P14842.
Result string: -0.55

Query string: Short answer please: log10(Ki), UniProt:P14842, entry CCCc1cc(N2CCN(CC)CC2)cc(-c2ccc(F)cc2F)c1OC
Result string: -1.43

Query string: # returns recorded log10(Ki) (system: UniProt:P14842) for CCCc1cc(N2CCN(CCF)CC2)cc(-c2ccc(F)cc2)c1OC
Result string: -0.97

Query string: Which log10(Ki) is reported with UniProt:P14842 for this entry: CCN1CCN(c2cc(-c3ccccc3)c(OC)c(S(=O)(=O)CC)c2)CC1 ?
Result string: -2.04

Query string: Any idea what log10(Ki) came out for CCN1CCN(c2cc(COCc3ccccc3)c(Cl)c(-c3ccccc3C)c2)CC1 on UniProt:P14842?
Result string: -1.62

Query string: Please provide the recorded log10(Ki) for CCCCOC(CC)c1cc(N2CCN(CC)CC2)cc(-c2ccccc2)c1OC (stereo not drawn) , tested on UniProt:P14842.
Result string: -0.62

Query string: Notebook entry, UniProt:P14842 assay: log10(Ki) of CCC(F)c1cc(N2CCN(CC)CC2)cc(-c2ccccc2)c1OC (stereo not drawn) = ?
Result string: -2.08

---

target: dopamine D2 receptor (Rattus norvegicus); construct: the receptor fraction prepared from the corpus striatum was molten and suspended; from tissue; host or cells: corpus striatum of SD rats (membrane fraction); experiment: dopamine D2 receptor binding test ([3H] Spiperone Binding Test); parameters: species or system SD rats; details: 1 nM [3H] Spiperone, rat corpus striatum, room temperature, 60 minutes; read-out: Ki value, dopamine D2 receptor
For each entry below, report its Ki value.

Query string: Fill in: Ki of CCN1CCN(c2cc(-c3ccc(F)cc3)c(OC)c(S(=O)(=O)CC)c2)CC1 [Example 40] is ___
Result string: 9.25 nM

Query string: What Ki value was documented for this molecule, CCN1CCN(c2cc(-c3ccccc3C)c(Cl)c(S(=O)(=O)N3CCCC3)c2)CC1 [Example 141] ?
Result string: 24.9 nM

Query string: Find the recorded Ki belonging to CCN1CCN(c2cc(CC(C)O)c(OC)c(-c3ccccc3)c2)CC1 (centres unmarked) [Example 75] and report it.
Result string: > 1000 nM

Query string: Could you share which Ki value was measured for CCN1CCN(c2cc(NS(=O)(=O)CC(F)(F)F)c(Cl)c(-c3ccccc3Cl)c2)CC1 [Example 163] ?
Result string: 10.2 nM

Query string: Consider the molecule shown here: CCCC(F)c1cc(N2CCN(CC)CC2)cc(-c2ccccc2)c1OC (centres unmarked) [Example 47] What is its recorded Ki?
Result string: 12.9 nM

Query string: Entry CCC(F)c1cc(N2CCN(CC)CC2)cc(-c2ccccc2)c1Cl (centres unmarked) [Example 127] : reported Ki = ?
Result string: 1.04 nM

Query string: Item under review: CCN1CCN(c2cc(-c3ccccc3)c(OC)c(C(O)Cc3ccccc3)c2)CC1 (centres unmarked) [Example 94] . Reported Ki?
Result string: 13.8 nM

Query string: Recorded Ki for CCN1CCN(c2cc(-c3ccccc3C)c(Cl)c(C(F)(F)CC)c2)CC1 [Example 55] , please?
Result string: 3.1 nM
